All values here come from the NIST ThermoML archive (doi:10.1021/acs.jced.5b00242).

assay: refractive index (Na D-line) (dimensionless); conditions: 293.15 K; 101 kPa; Liquid; Standard Abbe refractometry
quantityName: refractive index
# print the numeric value only

Known results for compounds:
>>> print(df.to_string())
                                   compound      quantityname  obsvalue
0  CCn1cc[n+](C)c1.N#C[C-](C#N)C#N [1-ethyl-3-methyl-1H-imidazolium tricyanomethanide]  refractive index   1.51454
1  CC[n+]1ccn(C)c1.N[C@@H](CO)C(=O)[O-] [3-ethyl-1-methyl-1H-imidazolium L-serinate]  refractive index   1.52699
2  CCn1cc[n+](C)c1.C[C@H](N)C(=O)[O-] [1-ethyl-3-methylimidazolium L-alaninate]  refractive index   1.51366
3  CCn1cc[n+](C)c1.NCCS(=O)(=O)[O-] [1-ethyl-3-methylimidazolium taurinate]  refractive index    1.5135
4  CCn1cc[n+](C)c1.O=C([O-])[C@@H]1CCCN1 [1-ethyl-3-methyl-1H-imidazolium L-prolinate]  refractive index   1.52291

Now look at this one.
Input line: Reported refractive index, compound CCn1cc[n+](C)c1.NCC(=O)[O-] [1-ethyl-3-methylimidazolium ammonioacetate] : ____
Output line: 1.52134
